Listed here: items and their measured kon.
molecular target: human recombinant integrin αvβ5 (αv extracellular domain-acidic leucine zipper-His×6 with β5 extracellular domain-basic leucine zipper) (human) (UniProt P06756); test: BLI (Octet), antibody captured on anti-human IgG Fc (AHC) biosensor, integrin αvβ5 3.1-100 nM as analyte, divalent cations
Sequence (P06756 other isoform, or with tags, fused parts or gaps, chain 1 of 2): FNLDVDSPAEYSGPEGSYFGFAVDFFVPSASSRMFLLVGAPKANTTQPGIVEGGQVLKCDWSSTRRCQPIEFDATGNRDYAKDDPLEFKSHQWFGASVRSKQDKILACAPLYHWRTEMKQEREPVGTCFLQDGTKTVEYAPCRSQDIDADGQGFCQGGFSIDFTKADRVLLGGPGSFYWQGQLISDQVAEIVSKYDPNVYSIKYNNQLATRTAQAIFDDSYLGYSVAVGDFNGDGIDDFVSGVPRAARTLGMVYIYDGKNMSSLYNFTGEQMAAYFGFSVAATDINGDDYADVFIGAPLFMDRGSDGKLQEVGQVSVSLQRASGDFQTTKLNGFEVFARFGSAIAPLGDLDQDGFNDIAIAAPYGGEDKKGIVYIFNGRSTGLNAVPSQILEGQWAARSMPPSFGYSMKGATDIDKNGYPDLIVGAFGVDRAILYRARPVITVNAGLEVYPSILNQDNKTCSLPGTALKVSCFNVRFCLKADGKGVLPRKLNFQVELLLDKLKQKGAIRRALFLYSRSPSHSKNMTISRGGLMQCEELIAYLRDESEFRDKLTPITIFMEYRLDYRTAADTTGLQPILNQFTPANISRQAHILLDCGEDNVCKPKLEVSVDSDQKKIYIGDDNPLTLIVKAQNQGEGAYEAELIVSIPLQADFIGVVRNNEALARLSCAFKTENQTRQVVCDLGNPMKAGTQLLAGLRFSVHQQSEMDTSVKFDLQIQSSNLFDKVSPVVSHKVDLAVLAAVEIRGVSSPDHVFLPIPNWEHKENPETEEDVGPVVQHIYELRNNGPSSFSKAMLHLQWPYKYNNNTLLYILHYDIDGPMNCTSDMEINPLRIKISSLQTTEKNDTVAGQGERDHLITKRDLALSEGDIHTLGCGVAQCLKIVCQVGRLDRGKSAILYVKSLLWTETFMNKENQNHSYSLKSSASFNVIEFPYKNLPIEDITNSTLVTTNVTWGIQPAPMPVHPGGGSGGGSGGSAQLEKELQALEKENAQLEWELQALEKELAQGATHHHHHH
Sequence (chain, as listed by the source, chain 2 of 2): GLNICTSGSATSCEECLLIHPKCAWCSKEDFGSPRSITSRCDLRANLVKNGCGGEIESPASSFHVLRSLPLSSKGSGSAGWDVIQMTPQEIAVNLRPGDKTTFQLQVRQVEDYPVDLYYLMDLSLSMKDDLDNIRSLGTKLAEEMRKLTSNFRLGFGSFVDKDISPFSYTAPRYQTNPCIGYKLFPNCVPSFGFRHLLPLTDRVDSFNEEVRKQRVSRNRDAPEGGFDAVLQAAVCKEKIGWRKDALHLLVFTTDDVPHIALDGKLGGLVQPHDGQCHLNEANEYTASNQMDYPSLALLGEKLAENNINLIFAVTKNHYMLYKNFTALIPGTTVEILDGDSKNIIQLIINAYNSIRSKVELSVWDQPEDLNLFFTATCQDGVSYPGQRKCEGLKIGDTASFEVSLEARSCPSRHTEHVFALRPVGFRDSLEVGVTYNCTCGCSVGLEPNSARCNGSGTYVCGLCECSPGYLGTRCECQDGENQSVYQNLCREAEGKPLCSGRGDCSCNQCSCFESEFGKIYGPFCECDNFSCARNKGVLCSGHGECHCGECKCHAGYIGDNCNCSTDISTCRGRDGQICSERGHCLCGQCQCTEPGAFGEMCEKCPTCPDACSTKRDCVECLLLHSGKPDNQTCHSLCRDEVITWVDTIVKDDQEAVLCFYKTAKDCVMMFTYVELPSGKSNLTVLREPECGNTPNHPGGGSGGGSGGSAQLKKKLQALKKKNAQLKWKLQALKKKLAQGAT
Could you give me the number in M⁻¹ s⁻¹? Just the number is fine.

Given the binder 5#2-Ras03 (antibody, part only; not given: RT22 heavy chain, constant regions, V domains shown, not shown: another chain or arm of the molecule; a dimerising Fc or GST; large carriers; small tags and cut ends, chain 1: disulfide bond Cys6-Cys14 closes the 5#2 cyclic peptide) VL: ASYNDCQSRGDTFCVADMGSSSNDIQMTQSPSSLSASVGDRVTITCKSSQSLLNSRDGKNYLAWYQQKPGKAPKLLIYWASTRESGVPSRFSGSGSGTDFTLTISSLQPEDFATYFCQQYWYWMYTFGQGTKVEIK , what is its reported kon?
45500

The measured values listed here are drawn from patent US20190389910A1.
